experimental protocol: Emulsion stability test (modified, xylene/water)
Format: physicochemical
assay setup: 0.5g surfactant, 90 mL deionized water, 5.0 mL xylene; second rocking sequence
result type: Emulsion Break Rate
Note: a bare number is incomplete; add the unit.

Some compounds with recorded Emulsion Break Rate:
>>> df
                                   compound          result_type  readout_value
0  CCCCCCCCNC(=O)c1ccccc1C(=O)O.OCCN(CCO)CCO [Triethanolammonium N-octylphthalamate]  Emulsion Break Rate     0.043 mL/s
1  CCCCCCCCCCNC(=O)c1ccccc1C(=O)O.OCCN(CCO)CCO [Triethanolammonium N-decylphthalamate]  Emulsion Break Rate     0.046 mL/s
2  CCCCCCCCCCCCCCCCNC(=O)c1ccccc1C(=O)[O-].[Na+] [Sodium N-hexadecylphthalamate]  Emulsion Break Rate     0.102 mL/s

[Q] Fill in: Emulsion Break Rate of CCCCCCCCCCCCCCNC(=O)c1ccccc1C(=O)[O-].[Na+] [Sodium N-tetradecylphthalamate] is ___
[A] 0.085 mL/s
